Test system: ARPE-19 cells
Conditions: ARPE-19, inhibitor pretreatment, A2E/ATRD 24 h, no light, AlamarBlue
Endpoint Name: protection against light-independent LF (A2E/ATRD) cytotoxicity, RPE survival

compound=Cc1cc(O)c(C(=O)/C=C/c2ccc(O)c([N+](=O)[O-])c2)c(=O)o1 test_system="ARPE-19 cells" obs_value="not affected"
compound="CN1C(=O)NC(Cc2c[nH]c3c(Cl)cccc23)C1=O (stereo not drawn)" test_system="ARPE-19 cells" obs_value="not affected"

###

System: ARPE-19 cells
Conditions: ARPE-19, inhibitor pretreatment, A2E/ATRD 24 h, no light, AlamarBlue
Protocol: Cell Viability Assay. […] 1× AlamarBlue solution prepared in OptiMEM was used to replace the media supernatant and the plate's fluorescence was determined at 555 nm excitation/585 nm emission with a SpectraMax M (Molecular Devices, CA, USA), after 1 h. […] Real time monitoring of necrotic and apoptotic cell-death. […] Viability was assessed at 24 hrs by AlamarBlue®, or microscopy with NUC405/DRAQ7. […]
Endpoint Name: protection against light-independent LF (A2E/ATRD) cytotoxicity, RPE survival

molecule="COc1ccc(-n2c(SCC#N)nc3sc4c(c3c2=O)CCCC4)cc1 [Nec5]" obs_value="not affected"
molecule="CN1C(=O)C(Cc2c[nH]c3ccccc23)NC1=S (stereo not drawn) [Nec1, Necrostatin-1]" obs_value="not affected"
